Where these numbers come from: patent US20220040297A1

# test.target: T1, CD3ε homodimer protein (human, UniProt P07766 23-126, limits assumed, sulfo-tag or biotin label in some ECL assays)
# T1 construct: also called human CD3ε homodimer protein; CD3 (CD3ε)
# T1 sequence (P07766 23-126 limits assumed): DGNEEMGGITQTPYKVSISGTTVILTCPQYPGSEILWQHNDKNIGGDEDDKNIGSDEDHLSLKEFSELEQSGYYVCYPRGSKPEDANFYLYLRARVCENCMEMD
# run.description: SPR, CD3ε homodimer on chip;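 further: biacore SPR with antibody variants flowed as analyte over amine-coupled CD3ε homodimer on a CM chip, bound amount of each single-residue H chain variant over that of parent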
property: ratio of amounts bound vs CE115HA000
Form: value (number only, do not type unit).

Given the binder CE115HA000 I51D (antibody, name in Kabat numbering, V domains shown) VH: QVQLVESGGGVVQPGRSLRLSCAASGFTFSNAWMHWVRQAPGKGLEWVAQDKAKSNNYATYYAESVKGRFTISRDDSKNSLYLQMNSLKTEDTAVYYCRYVHYGAYYGVDAWGQGTTVTVSS VL: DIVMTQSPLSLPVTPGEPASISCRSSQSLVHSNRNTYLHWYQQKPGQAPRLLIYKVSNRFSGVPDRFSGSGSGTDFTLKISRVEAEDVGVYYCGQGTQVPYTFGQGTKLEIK , what is its reported ratio of amounts bound vs CE115HA000?
0.29

What value of ratio of amounts bound vs CE115HA000 has been recorded for this entry: CE115HA000 S52cA (antibody, name in Kabat numbering, V domains shown) VH: QVQLVESGGGVVQPGRSLRLSCAASGFTFSNAWMHWVRQAPGKGLEWVAQIKAKANNYATYYAESVKGRFTISRDDSKNSLYLQMNSLKTEDTAVYYCRYVHYGAYYGVDAWGQGTTVTVSS VL: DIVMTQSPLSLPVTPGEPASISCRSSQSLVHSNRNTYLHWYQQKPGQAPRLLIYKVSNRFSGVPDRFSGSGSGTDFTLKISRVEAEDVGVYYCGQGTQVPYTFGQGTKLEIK
0.96

// query ratio of amounts bound vs CE115HA000 value for entry CE115HA000 Y100W (antibody, name in Kabat numbering, V domains shown) VH: QVQLVESGGGVVQPGRSLRLSCAASGFTFSNAWMHWVRQAPGKGLEWVAQIKAKSNNYATYYAESVKGRFTISRDDSKNSLYLQMNSLKTEDTAVYYCRYVHYGAWYGVDAWGQGTTVTVSS VL: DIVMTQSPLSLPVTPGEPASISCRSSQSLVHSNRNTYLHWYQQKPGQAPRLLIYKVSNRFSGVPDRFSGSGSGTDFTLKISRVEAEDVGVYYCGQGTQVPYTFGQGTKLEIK
1.03
